// reported pIC50 for each item listed
Target: UniProt O75914
Sequence (O75914 1-544 isoform O75914-2): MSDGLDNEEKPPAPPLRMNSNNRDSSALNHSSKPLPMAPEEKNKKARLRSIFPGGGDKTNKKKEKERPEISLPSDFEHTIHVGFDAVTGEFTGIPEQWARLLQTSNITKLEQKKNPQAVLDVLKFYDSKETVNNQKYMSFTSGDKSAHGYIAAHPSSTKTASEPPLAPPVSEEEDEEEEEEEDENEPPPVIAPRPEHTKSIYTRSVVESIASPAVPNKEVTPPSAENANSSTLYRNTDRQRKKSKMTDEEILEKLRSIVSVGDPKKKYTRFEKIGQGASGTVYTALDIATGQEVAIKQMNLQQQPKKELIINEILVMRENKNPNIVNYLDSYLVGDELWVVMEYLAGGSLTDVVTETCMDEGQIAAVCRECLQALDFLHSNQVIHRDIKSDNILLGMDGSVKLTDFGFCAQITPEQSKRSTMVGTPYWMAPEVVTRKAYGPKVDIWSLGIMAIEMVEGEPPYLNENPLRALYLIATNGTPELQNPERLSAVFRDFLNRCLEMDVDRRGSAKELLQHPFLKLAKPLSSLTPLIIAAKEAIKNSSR
Test: In vitro PAK inhibition assay (Z'-LYTE, SelectScreen), PAK3
Assay type: biochemical
Details: read-out: PAK3 IC50
pIC50: −log10 of the molar value.

Worked cases, pIC50 given:
CCn1c(=O)c(-c2ccc(-c3nccnc3C)cc2Cl)cc2cnc(NC3CCS(=O)(=O)CC3)nc21 : 5.30 to 6.30
Cc1cncc(-c2ccc(-c3cc4cnc(NC5CCOCC5)nc4n(Cc4ccccc4Cl)c3=O)c(Cl)c2)n1 : 6.30 to 7.30
CCn1c(=O)c(-c2ccc(-c3cncc(C)n3)cc2Cl)cc2cnc(N[C@H]3CC[C@H](N)CC3)nc21 : 6.30 to 7.30
CCn1c(=O)c(-c2ccc(-c3cncc(C)n3)cc2Cl)cc2cnc(N[C@H]3CC[C@@H](N)CC3)nc21 : 5.30 to 6.30

--- query ---
Find the measured pIC50 of CCn1c(=O)c(-c2ccc(-c3nccnc3C)cc2Cl)cc2cnc(NC3CCN(C)C3)nc21 (centres unmarked) and report it.
5.30 to 6.30

###

compounds and their reported IC50
Target: PAK1 (Homo sapiens)
Assay: In vitro PAK inhibition assay (Z'-LYTE, SelectScreen), PAK1
Format: biochemical
Details: read-out: PAK1 IC50

Observe how each entry below is paired with its result.
COCCCn1c(=O)c(-c2ccc(-c3cncc(C)n3)cc2Cl)cc2cnc(N[C@@H]3CCOC3)nc21 : < 50 nM
Cc1nccnc1-c1ccc(-c2cc3cnc(N[C@@H]4CCOC4)nc3n(Cc3ccccn3)c2=O)c(Cl)c1 : 50 to 500 nM
Cc1cncc(-c2ccc(-c3cc4cnc(N[C@H]5CCOC5)nc4n(C4CCN(C)CC4)c3=O)c(Cl)c2)n1 : 50 to 500 nM

Respond only with IC50 recorded for Cc1cncc(-c2ccc(-c3cc4cnc(NC5CCCC5)nc4n([C@H]4CC[C@H](N)CC4)c3=O)c(Cl)c2)n1
< 50 nM

# return recorded IC50 for input CCn1c(=O)c(-c2ccc(-c3ccncc3)cc2Cl)cc2cnc(NC3CCOCC3)nc21
500 to 5000 nM

Dear colleague, please send me the reported IC50 for CCn1c(=O)c(-c2ccc(-c3cccnc3F)cc2Cl)cc2cnc(NC3CCOCC3)nc21 when you can.
< 50 nM

// fetch IC50 given entry CCn1c(=O)c(-c2ccc(-c3noc(C)n3)cc2Cl)cc2cnc(N[C@@H]3CCOC3)nc21
50 to 500 nM

###

The entries below are paired with their reported IC50.
Target: PAK1 (Homo sapiens, UniProt Q13153)
Sequence (Q13153 whole entry): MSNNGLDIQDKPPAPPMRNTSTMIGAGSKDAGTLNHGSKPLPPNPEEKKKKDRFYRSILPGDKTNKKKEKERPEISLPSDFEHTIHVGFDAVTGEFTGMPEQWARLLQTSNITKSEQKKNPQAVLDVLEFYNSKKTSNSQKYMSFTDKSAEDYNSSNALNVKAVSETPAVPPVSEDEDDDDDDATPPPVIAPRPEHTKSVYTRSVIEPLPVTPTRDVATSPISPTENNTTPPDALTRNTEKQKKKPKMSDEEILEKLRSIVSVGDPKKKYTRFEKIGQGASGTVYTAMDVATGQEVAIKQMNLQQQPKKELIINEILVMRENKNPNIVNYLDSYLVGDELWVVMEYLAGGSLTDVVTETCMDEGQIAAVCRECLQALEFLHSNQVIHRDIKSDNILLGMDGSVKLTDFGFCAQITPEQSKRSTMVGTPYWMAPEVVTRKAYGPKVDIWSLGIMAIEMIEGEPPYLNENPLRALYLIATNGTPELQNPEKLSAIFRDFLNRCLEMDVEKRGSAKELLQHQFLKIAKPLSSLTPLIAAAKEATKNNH
Test: In vitro PAK inhibition assay (Z'-LYTE, SelectScreen), PAK1
Format: biochemical
Details: read-out: PAK1 IC50
Description: Compounds are screened in 1% DMSO (final) in the well. For 10 point titrations, 3-fold serial dilutions are conducted. All Peptide/Kinase Mixtures are diluted to a 2× working concentration in the appropriate Kinase Buffer […] 7. Determine the fluorescence using a fluorescence plate reader […] The representative IC50 value with a known inhibitor for each kinase was determined at the ATP bin nearest to the ATP Km app.

Worked examples follow.
Cc1cncc(-c2ccc(-c3cc4cnc(N[C@@H]5CCOC5)nc4n(C4CCNCC4)c3=O)c(Cl)c2)n1 : 50 to 500 nM
Cc1cncc(-c2ccc(-c3cc4cnc(NCC5CC5)nc4n([C@H]4CC[C@H](N)CC4)c3=O)c(Cl)c2)n1 : < 50 nM
Cc1nccnc1-c1ccc(-c2cc3cnc(N[C@H]4CCOC4)nc3n(Cc3ccncc3)c2=O)c(Cl)c1 : 50 to 500 nM
CCn1c(=O)c(-c2ccc(-c3noc(C)n3)cc2Cl)cc2cnc(NCCC3CCN(C)CC3)nc21 : < 50 nM
CCn1c(=O)c(-c2ccc(-c3cccnc3F)cc2Cl)cc2cnc(N[C@@H]3CCOC3)nc21 : < 50 nM
CCn1c(=O)c(-c2ccc(-c3cncc(C)n3)cc2Cl)cc2cnc(N[C@H]3CCCNC3=O)nc21 : > 5000 nM
CCn1c(=O)c(-c2ccc(-c3cncc(C)n3)cc2Cl)cc2cnc(N[C@H]3CC[C@H](CN(C)C)CC3)nc21 : < 50 nM
Cc1cncc(-c2ccc(-c3cc4cnc(N[C@@H]5CCOC5)nc4n(CCCN)c3=O)c(Cl)c2)n1 : 50 to 500 nM
CCn1c(=O)c(-c2ccc(-c3cccnc3)cc2Cl)cc2cnc(N[C@@H]3CCOC3)nc21 : 50 to 500 nM
CCn1c(=O)c(-c2ccc(-c3cnccc3C)cc2Cl)cc2cnc(NC3CCOCC3)nc21 : 50 to 500 nM

GET IC50 | system: PAK1 (Homo sapiens, UniProt Q13153) | item: Cc1cncc(-c2ccc(-c3cc4cnc(N[C@H]5CCOC5)nc4n(C4CCNCC4)c3=O)c(Cl)c2)n1
50 to 500 nM

Provide the reported IC50 (system: PAK1 (Homo sapiens, UniProt Q13153)) for CCn1c(=O)c(-c2ccc(-c3cncc(C)n3)cc2Cl)cc2cnc(NC3CCC(CCN(C)C)CC3)nc21 (stereo not drawn)
< 50 nM

Look up and report measured IC50 (PAK1 (Homo sapiens, UniProt Q13153)) for the following compound: CCn1c(=O)c(-c2ccc(-c3cncc(C)n3)cc2Cl)cc2cnc(NC3CCOC(C)(C)C3)nc21 (stereo not drawn)
50 to 500 nM

Write IC50 of CCn1c(=O)c(-c2ccc(-c3cccnc3O)cc2Cl)cc2cnc(NC3CCOCC3)nc21 ; system used: PAK1 (Homo sapiens, UniProt Q13153)
50 to 500 nM

Write down the reported IC50 (system: PAK1 (Homo sapiens, UniProt Q13153)) of Cc1cncc(-c2ccc(-c3cc4cnc(N[C@H]5CCOC5)nc4n([C@H]4CC[C@H](N)CC4)c3=O)c(Cl)c2)n1
< 50 nM

meta.source: patent US20130116263A1
